test system: Candida albicans; assay: Antifungal activity against Candida albicans ATCC 14053 after 48 hrs by CLSI method; format: functional, organism-based; settings: ATCC 14053, 48 h
Attribute: IC50

[in] Any idea what its IC50 is? The compound is CCCCCCCCCCCCCC#CCCCCC(=O)O [6-ICOSYNOIC ACID]
[out] > 162 µM

Continuing:
[in] So what's the measured IC50 for this one? C=CCCCCCCCCC(=O)O
[out] > 543 µM

[in] Repeat for the following compound: CCCCCCCCCCC#CCCCCC(=O)O
[out] > 188 µM
